study target: recombinant human CK2 (Homo sapiens (Human))
procedure details: CK2 assay (cell-free, 33P-ATP filter plate)
Format: biochemical
condition label: 15 um ATP, cell-free; read-out: CK2 (15 um ATP) IC50
quantity kind: IC50 (nM)
Enter your answer as a number in nM; do not include the unit.

IC50 on recombinant human CK2 (Homo sapiens (Human)) for FC(F)(F)c1cccc(Nc2nc3cc(-c4nnn[nH]4)ccc3c3sccc23)c1 is 458

====

Items are presented alongside their recorded inhibition at 0.5 µM.
study target: recombinant human CK2 (Homo sapiens (Human), UniProt P68400)
Sequence (P68400 whole entry): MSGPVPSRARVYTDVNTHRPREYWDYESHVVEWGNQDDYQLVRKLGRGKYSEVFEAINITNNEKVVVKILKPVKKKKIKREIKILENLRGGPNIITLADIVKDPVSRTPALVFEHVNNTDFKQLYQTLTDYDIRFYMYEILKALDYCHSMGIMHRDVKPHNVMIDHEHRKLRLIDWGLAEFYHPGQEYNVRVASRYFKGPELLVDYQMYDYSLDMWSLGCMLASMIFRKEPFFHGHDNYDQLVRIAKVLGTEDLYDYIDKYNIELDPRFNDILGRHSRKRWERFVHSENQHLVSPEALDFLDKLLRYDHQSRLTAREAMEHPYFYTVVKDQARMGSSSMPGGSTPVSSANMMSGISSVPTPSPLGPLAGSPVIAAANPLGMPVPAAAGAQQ
Sequence (P67870 whole entry partner): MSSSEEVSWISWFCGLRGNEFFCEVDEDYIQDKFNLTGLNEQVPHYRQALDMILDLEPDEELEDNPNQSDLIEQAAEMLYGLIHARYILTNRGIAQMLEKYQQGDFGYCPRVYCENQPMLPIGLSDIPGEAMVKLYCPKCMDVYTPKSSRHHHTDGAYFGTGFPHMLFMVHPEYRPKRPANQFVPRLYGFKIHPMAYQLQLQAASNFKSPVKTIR
procedure details: CK2 assay (cell-free, 33P-ATP filter plate)
Type: biochemical
condition label: 500 nM compound, cell-free assay; read-out: CK2: % inh 500 nM
Response body: numeric value in %, unit text excluded.

Example entries and their recorded answers appear below.
Lab book: inhibition at 0.5 µM of O=C(O)c1ccc2c(c1)nc(NCC1CCN1Cc1ccccc1)c1ccncc12 (centres unmarked) noted as 55.9

Documented inhibition at 0.5 µM of FC(F)(F)CCNc1nc2cc(-c3nnn[nH]3)ccc2c2sccc12 : 58.4

The compound listed as CC(C)(C)OC(=O)N1CCC(Nc2nc3cc(C#N)ccc3c3sccc23)CC1 shows inhibition at 0.5 µM equal to 1.98

inhibition at 0.5 µM recorded for this compound, O=c1[nH]c2cc(F)ccc2c2cnccc12 , is -1.1

New cases:
Field inhibition at 0.5 µM (entry CN(C)CCNc1nc2cc(-c3nnn[nH]3)ccc2c2sc(-c3ccccc3)cc12 ) reads 0.269

Recorded result, CN(C)CCNc1nc2cc(-c3nnc[nH]3)ccc2c2sccc12 , inhibition at 0.5 µM: -76.9

get_value(item= Clc1nc2ccccc2c2cnccc12 , readout=inhibition at 0.5 µM) returns 9.99
